Biological target: DR7 (DRB1*0701) (Homo sapiens, UniProt P01903+P01911, A100R/A102G/A103Q/D57E/D86V/E43K/F76Y/K127E/L162R/M171V/P40G/Q125H/Q99D/R33Q/R42Y/R54Q/S133A/S66F/T210M/V115G/Y107V/Y59L/Y89S)
Assay: biochemical
Format: binding
pIC50: −log10 of the molar value.
Each item that follows carries a reported pIC50.

Examples from the recorded data:
CC(C)C[C@H](NC(=O)[C@H](CC(C)C)NC(=O)[C@@H]1CCCN1C(=O)[C@@H](N)CC(N)=O)C(=O)NCC(=O)N[C@@H](C)C(=O)N[C@@H](C)C(=O)N[C@H](C(=O)N1CCC[C@H]1C(=O)N[C@H](C(=O)NCC(=O)N[C@@H](CC(N)=O)C(=O)N[C@@H](CC(N)=O)C(=O)N[C@@H](CCCCN)C(=O)N[C@@H](CCCNC(=N)N)C(=O)O)[C@@H](C)O)[C@@H](C)O [Peptide 89.0165] = < 4.70
CC[C@H](C)[C@H](NC(=O)[C@H](CCC(=O)O)NC(=O)[C@H](CC(N)=O)NC(=O)CNC(=O)[C@H](CC(=O)O)NC(=O)[C@H](CCC(=O)O)NC(=O)[C@H](CC(N)=O)NC(=O)[C@@H](NC(=O)[C@@H](NC(=O)[C@H](CO)NC(=O)[C@@H](NC(=O)[C@@H](N)Cc1ccc(O)cc1)[C@@H](C)CC)[C@@H](C)CC)[C@@H](C)CC)C(=O)N[C@@H](Cc1ccccc1)C(=O)N[C@@H](CC(N)=O)C(=O)N[C@H](C(=O)O)[C@@H](C)O [Peptide 68.0165] = < 4.70

Determine its reported pIC50: CC[C@H](C)[C@H](NC(=O)[C@H](CO)NC(=O)[C@H](CO)NC(=O)[C@H](CC(=O)O)NC(=O)[C@H](C)NC(=O)[C@H](CC(N)=O)NC(=O)[C@@H](NC(=O)[C@H](Cc1ccc(O)cc1)NC(=O)[C@H](C)NC(=O)[C@@H](NC(=O)CNC(=O)[C@H](CCCNC(=N)N)NC(=O)[C@@H](N)CCC(=O)O)C(C)C)[C@@H](C)CC)C(=O)N[C@@H](CCC(=O)O)C(=O)NCC(=O)O [Peptide 68.0109]
< 4.70
